system: galium; experiment: Test C postemergence; format: in vivo, Galium aparine; details: 500 g ai/ha, postemergence, 10 days, 0 to 100 scale (0 no effect, 100 complete control)
Text: […]
RECORDED METRIC: Plant response rating, Galium

Tell me the measured Plant response rating, Galium of COC(=O)c1ncn(-c2ccc(C)c(C(=O)N3C[C@H](C)Oc4c(Cl)cccc43)c2)n1 [Compound 315] , please.
70

Given Cc1cccc2c1OC(C(F)(F)F)CN2C(=O)c1ccnc(-n2cnc(C(C)(C)C)n2)c1 (stereo not shown) [Compound 319] , state its recorded Plant response rating, Galium.
70

Which Plant response rating, Galium value is on record for Cc1cccc2c1OC(C(F)(F)F)CN2C(=O)c1ccnc(-n2cnc(C(C)C)n2)c1 (single isomer, unassigned) [Compound 320] ?
70

// Plant response rating, Galium lookup, key: CC(C)(C)c1ncn(-c2cc(C(=O)N3CC(C(F)(F)F)Oc4c(Cl)cccc43)ccn2)n1 (stereo not shown) [Compound 322]
70

Which Plant response rating, Galium is listed for Cc1cccc2c1O[C@@H](C)CN2C(=O)c1cccc(-n2cnc(-c3ccccc3)n2)c1 [Compound 283] ?
80

Please look up its Plant response rating, Galium: Cc1ncn(-c2cccc(C(=O)N3C[C@H](C)Oc4c(Cl)cccc43)c2)n1 [Compound 326]
100

What value of measured Plant response rating, Galium is listed for CCc1ncn(-c2cccc(C(=O)N3CC(C(F)(F)F)Oc4c(Cl)cccc43)c2)n1 (stereo not shown) [Compound 345] ?
100

These measurements were taken from patent US20260262643A1.
